target: Protein cereblon/Zinc finger protein Aiolos (Homo sapiens, UniProt Q96SW2+Q9UKT9); test: Protac activity at CRBN/IKZF3 (unknown origin) assessed as IKZF3 degradation
Sequence (Q96SW2 whole entry): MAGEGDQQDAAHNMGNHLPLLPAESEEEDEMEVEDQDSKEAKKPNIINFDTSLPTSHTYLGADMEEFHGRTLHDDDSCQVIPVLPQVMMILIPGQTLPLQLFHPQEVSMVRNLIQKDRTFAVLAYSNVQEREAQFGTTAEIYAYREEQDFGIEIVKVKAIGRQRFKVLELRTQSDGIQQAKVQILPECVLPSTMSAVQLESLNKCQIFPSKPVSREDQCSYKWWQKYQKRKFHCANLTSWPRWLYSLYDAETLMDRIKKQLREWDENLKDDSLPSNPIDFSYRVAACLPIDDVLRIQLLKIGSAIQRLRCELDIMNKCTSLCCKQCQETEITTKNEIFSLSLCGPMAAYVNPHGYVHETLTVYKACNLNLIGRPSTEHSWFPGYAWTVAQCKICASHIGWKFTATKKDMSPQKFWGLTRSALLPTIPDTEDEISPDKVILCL
Sequence (Q9UKT9 whole entry): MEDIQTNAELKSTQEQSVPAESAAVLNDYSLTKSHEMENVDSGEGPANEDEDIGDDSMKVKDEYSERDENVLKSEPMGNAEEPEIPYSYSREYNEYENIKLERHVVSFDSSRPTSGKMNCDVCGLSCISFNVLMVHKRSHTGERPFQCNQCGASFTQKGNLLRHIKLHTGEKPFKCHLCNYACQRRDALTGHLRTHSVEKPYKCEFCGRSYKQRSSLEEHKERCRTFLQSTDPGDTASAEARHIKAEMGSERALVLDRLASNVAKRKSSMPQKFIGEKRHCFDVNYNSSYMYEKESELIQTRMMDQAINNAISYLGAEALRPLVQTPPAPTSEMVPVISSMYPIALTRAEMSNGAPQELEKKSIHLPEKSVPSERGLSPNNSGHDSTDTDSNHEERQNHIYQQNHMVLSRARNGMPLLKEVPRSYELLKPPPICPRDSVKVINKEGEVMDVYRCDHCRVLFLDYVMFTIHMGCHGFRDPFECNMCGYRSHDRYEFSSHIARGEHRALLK
RECORDED_ENDPOINT: EC50

>>> measured("O=C1CCC(N2Cc3cc(CNC(=O)C(F)(F)c4ccc(Cl)cc4)ccc3C2=O)C(=O)N1 (stereo unspecified)")
"> 10 µM"

---

test: MRT in CD1 mouse at 2 mg/kg, iv administered as bolus dose; assay type: ADME, organism-based; conditions: in vivo
RECORDED_ENDPOINT: MRT (min)

>>> measured("O=C1CCC(N2Cc3cc(CNC(=O)C(F)(F)c4ccc(Cl)cc4)ccc3C2=O)C(=O)N1 (stereo unspecified)")
14.4
